Let's look at some compounds and their measured pIC50.
Test: Cytotoxicity against human MCF7/Topo cells assessed as inhibition of cell growth by MTT assay
Assay type: functional, cell-based
pIC50 (log units): -log10 of the concentration in mol/L.

COc1ccc(-c2ncn(C)c2-c2ccc(/C=C/C(=O)NO)cc2)cc1 ... 6.52
CCn1cnc(-c2ccc(OC)cc2)c1-c1ccc(/C=C/C(=O)NO)cc1 ... 6.52

Exercise: Any idea what pIC50 was measured for Cn1cnc(-c2ccc(F)cc2)c1-c1ccc(/C=C/C(=O)NO)cc1 ?
Solution: 6.52

----------
Assay: Cytotoxicity against HEK293 cells by MTT assay
Type: toxicity, cell-based
Details: human
experimental endpoint: CC50

Exercise: Any idea what CC50 was measured for O=C(CCCN1CCN(C(=O)Nc2cccc3ncccc23)CC1)NO ?
Solution: > 100 µM

----------
Test system: U-266
Experiment: Antiproliferative activity against human U-266 cells assessed as inhibition of cell growth by MTT assay
Type: functional, cell-based
experimental endpoint: IC50 (µM)
Output spec: scalar in µM, unitless text.

O=C(NO)c1cn(C2CCN(C(=O)Cc3ccc4ccccc4c3)CC2)nn1 ... 1.2

We now examine a further compound.
Exercise: Any idea what IC50 was measured for O=C(NO)c1cn(C2CCN(C(=O)c3ccc(-c4ccccc4)cc3)CC2)nn1 ?
Solution: 1.2

----------
Let's look at some compounds and their measured IC50.
Target: Histone deacetylase 2 (Homo sapiens, UniProt Q92769)
Sequence (Q92769 whole entry): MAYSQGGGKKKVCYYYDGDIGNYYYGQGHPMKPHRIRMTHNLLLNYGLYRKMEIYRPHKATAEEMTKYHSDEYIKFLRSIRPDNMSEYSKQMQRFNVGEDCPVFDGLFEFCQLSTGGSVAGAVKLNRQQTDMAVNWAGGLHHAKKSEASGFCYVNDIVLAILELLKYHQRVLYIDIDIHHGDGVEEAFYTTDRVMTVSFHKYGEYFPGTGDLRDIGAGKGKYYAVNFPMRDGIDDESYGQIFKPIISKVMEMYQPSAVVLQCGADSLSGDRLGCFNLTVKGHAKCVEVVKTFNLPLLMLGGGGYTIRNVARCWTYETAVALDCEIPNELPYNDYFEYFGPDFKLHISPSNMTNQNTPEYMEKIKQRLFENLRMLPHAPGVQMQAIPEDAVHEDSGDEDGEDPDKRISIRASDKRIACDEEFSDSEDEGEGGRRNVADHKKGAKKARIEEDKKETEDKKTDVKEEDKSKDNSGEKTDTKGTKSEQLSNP
Output spec: scalar in nM, unitless text.

Exercise: Look up IC50 with Histone deacetylase 2 (Homo sapiens, UniProt Q92769) for this compound: Cc1[nH]c2ccccc2c1CCNS(=O)(=O)c1ccc(/C=C/C(=O)NO)cc1
Solution: 5.13

Exercise: Look up IC50 with Histone deacetylase 2 (Homo sapiens, UniProt Q92769) for this compound: CO/N=C1\CN(Cc2ccc(/C=C/C(=O)NO)cc2)c2ccc(F)cc21
Solution: 267

Exercise: Look up IC50 with Histone deacetylase 2 (Homo sapiens, UniProt Q92769) for this compound: O=C(NO)c1cn(C2CCN(C(=O)Cc3ccc4ccccc4c3)CC2)nn1
Solution: 1000

Exercise: Look up IC50 with Histone deacetylase 2 (Homo sapiens, UniProt Q92769) for this compound: O=C(CCCn1cc(CN2C(=O)/C(=N\O)c3cc(Br)ccc32)nn1)NO
Solution: 910

Exercise: Look up IC50 with Histone deacetylase 2 (Homo sapiens, UniProt Q92769) for this compound: O=C(CCCCCC(=O)N(Cc1ccc(Br)s1)c1ccc(OCCN2CCOCC2)cc1)NO
Solution: 1.14

Exercise: Look up IC50 with Histone deacetylase 2 (Homo sapiens, UniProt Q92769) for this compound: O=C(/C=C/c1ccc(CN2C/C(=N\O)c3cc(Cl)ccc32)cc1)NO
Solution: 86

Exercise: Look up IC50 with Histone deacetylase 2 (Homo sapiens, UniProt Q92769) for this compound: Cc1ccc2c(c1)/C(=N\O)C(=O)N2CCCC(=O)NO
Solution: 910

----------
Tested on: Kasumi 1
Experiment: Cytotoxicity against human Kasumi 1 cells assessed as inhibition of cell growth by MTT assay
Format: functional, cell-based
experimental endpoint: IC50

Exercise: Any idea what IC50 was measured for Cn1c(CCCCCCC(=O)NO)nc2cc(N(CCCl)CCCl)ccc21 [TINOSTAMUSTINE] ?
Solution: 0.82 µM

----------
System: T47D
Assay: Cytotoxicity against human T47D cells assessed as inhibition of cell growth by MTS assay
Assay type: functional, cell-based
experimental endpoint: IC50 (µM)
Output spec: scalar in µM, unitless text.

Exercise: Any idea what IC50 was measured for CCCCc1nc2cc(/C=C/C(=O)NO)ccc2n1CCN(CC)CC [PRACINOSTAT] ?
Solution: 5.34

----------
Experiment: Cytotoxicity against human U87 cells assessed as inhibition of cell growth by MTT assay
Assay type: functional, cell-based, U-87MG ATCC
Conditions: U-87 MG
experimental endpoint: IC50 (µM)
Output spec: scalar in µM, unitless text.

Exercise: Any idea what IC50 was measured for O=C(CCCCCNC(=O)c1cc(O)c2c(c1)C(=O)c1cccc(O)c1C2=O)NO ?
Solution: 5.5

----------
Test system: U-937
Experiment: Antiproliferative activity against human U-937 cells assessed as inhibition of cell growth by MTT assay
Type: functional, cell-based
Let's look at some compounds and their measured pIC50.
pIC50 (log units): -log10 of the concentration in mol/L.

Exercise: Any idea what pIC50 was measured for O=C(NO)c1cn(C2CCN(C(=O)c3ccc(-c4ccccc4)cc3)CC2)nn1 ?
Solution: 5.92

Exercise: Any idea what pIC50 was measured for O=C(NO)c1cn(C2CCN(C(=O)Cc3ccc4ccccc4c3)CC2)nn1 ?
Solution: 5.92

----------
Test: Selectivity index, ratio of IC50 for cytotoxicity against human HDFa cells to IC50 for cytotoxicity against human 518A2 cells
Assay type: toxicity, cell-based
Settings: HDFa cells and 518A2 cells, pooled result: one value given for 6 cell lines, strains, targets or settings, read-out: Ratio IC50
experimental endpoint: selectivity ratio
Give the figure by itself; no unit, no explanation.

Exercise: Any idea what selectivity ratio was measured for COc1ccc(-c2ocnc2-c2cc(Br)c(OC)c(OC)c2)cc1OCCCC(=O)NO ?
Solution: 8.5

----------
Experiment: Selectivity index, ratio of IC50 for cytotoxicity against human MCF-10F cells to IC50 for cytotoxicity against human A549 cells
Type: toxicity, cell-based
Conditions: MCF-10F cells and A549 cells, read-out: Ratio IC50
experimental endpoint: selectivity ratio

Exercise: Any idea what selectivity ratio was measured for O=C(CCCCCC(=O)N(Cc1ccc(Br)s1)c1ccc(OCCN2CCOCC2)cc1)NO ?
Solution: > 16.2

----------
Target: Histone deacetylase
Experiment: Inhibition of HDAC (unknown origin)
Format: protein assay, Homo sapiens
experimental endpoint: IC50 (nM)
Output spec: scalar in nM, unitless text.

Cc1c(CCNS(=O)(=O)c2ccc(/C=C/C=C/C(=O)NO)cc2)c2ccccc2n1C ... 3.4
O=C(/C=C/c1ccc(Cn2cnc3cc(F)ccc3c2=O)cc1)NO ... 150
CC(C)n1cnc2c(-c3ccc(COCCCCCCC(=O)NO)cc3)nc(N3CCOCC3)nc21 ... 278
CC(C)n1cnc2c(-c3ccc(OCCCCCC(=O)NO)cc3)nc(N3CCOCC3)nc21 ... 278
CC(C)n1cnc2c(-c3cccc(COCCCCC(=O)NO)c3)nc(N3CCOCC3)nc21 ... 35
CCn1c(C)c(CCNS(=O)(=O)c2ccc(/C=C/C=C/C(=O)NO)cc2)c2ccccc21 ... 3.3
CC(C)n1cnc2c(-c3ccc(OCC(=O)NO)cc3)nc(N3CCOCC3)nc21 ... 278
Cc1ccc2c(=O)n(Cc3ccc(/C=C/C(=O)NO)cc3)cnc2c1 ... 170
O=C(CCCCCN1CCN2[C@H](Cc3c([nH]c4ccccc34)[C@H]2c2ccc(Br)cc2)C1)NO ... 14.5
CC(C)n1cnc2c(-c3cccc(COCCCCCCCC(=O)NO)c3)nc(N3CCOCC3)nc21 ... 35

Exercise: Any idea what IC50 was measured for CC(C)n1cnc2c(-c3cccc(OCCCCCCCC(=O)NO)c3)nc(N3CCOCC3)nc21 ?
Solution: 35

----------
Tested on: NCI-H23
Experiment: Potency index, ratio of vorinostat IC50 to test compound IC50 for cytotoxicity against human NCI-H23 cells assessed as inhibition of cell growth by MTT assay
Assay type: functional
experimental endpoint: Ratio IC50

Please review the entries below; each comes with its answer.
Cc1ccc2c(=O)n(Cc3ccc(/C=C/C(=O)NO)cc3)cnc2c1 ... >3
O=C(/C=C/c1ccc(Cn2cnc3cc(F)ccc3c2=O)cc1)NO ... >3
Cc1nc2ccc(Cl)cc2c(=O)n1Cc1ccc(C(=O)NO)cc1 ... >3

Exercise: Any idea what Ratio IC50 was measured for COc1cc2ncn(Cc3ccc(C(=O)NO)cc3)c(=O)c2cc1OC ?
Solution: >3

----------
Assay: Cytotoxicity against human HDFa cells assessed as inhibition of cell proliferation by MTT assay
Type: toxicity, cell-based
experimental endpoint: IC50
Write your answer as a measured quantity: the number, then the unit.

Exercise: Any idea what IC50 was measured for COc1ccc(-c2ocnc2-c2cc(Br)c(OC)c(OC)c2)cc1OCCCC(=O)NO ?
Solution: 23.9 µM

----------
System: SK-HEP1
Test: Cytotoxicity against human SK-HEP1 cells assessed as inhibition of cell growth by SRB assay
Type: functional, cell-based
experimental endpoint: IC50 (nM)
Output spec: scalar in nM, unitless text.

Exercise: Any idea what IC50 was measured for CC(C)n1cnc2c(-c3cccc(OCCCCC(=O)NO)c3)nc(N3CCOCC3)nc21 ?
Solution: 160

----------
Assay: Cytotoxicity against human MCF-10F cells
Assay type: toxicity, cell-based
pIC50: −log10 of the molar value.
experimental endpoint: pIC50

Exercise: Any idea what pIC50 was measured for O=C(CCCCCC(=O)N(Cc1ccc(Br)s1)c1ccc(OCCN2CCOCC2)cc1)NO ?
Solution: < 4.00

----------
Biological target: Histone deacetylase 1 (Homo sapiens, UniProt Q13547)
Sequence (Q13547 whole entry): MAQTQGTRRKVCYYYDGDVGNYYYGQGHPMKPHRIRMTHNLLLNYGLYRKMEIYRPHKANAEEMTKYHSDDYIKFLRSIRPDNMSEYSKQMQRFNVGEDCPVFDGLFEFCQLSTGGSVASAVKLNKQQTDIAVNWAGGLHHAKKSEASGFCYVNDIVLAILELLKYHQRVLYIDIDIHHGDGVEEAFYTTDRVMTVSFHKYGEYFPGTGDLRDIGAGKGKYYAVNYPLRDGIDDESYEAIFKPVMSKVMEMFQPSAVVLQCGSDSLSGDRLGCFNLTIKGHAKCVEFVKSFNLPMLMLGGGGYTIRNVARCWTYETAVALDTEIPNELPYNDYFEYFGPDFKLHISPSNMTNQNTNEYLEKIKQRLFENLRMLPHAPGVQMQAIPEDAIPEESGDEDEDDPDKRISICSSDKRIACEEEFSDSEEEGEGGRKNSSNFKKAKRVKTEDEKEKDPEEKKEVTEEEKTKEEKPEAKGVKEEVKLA
Experiment: Inhibition of HDAC1 (unknown origin)
Let's look at some compounds and their measured IC50.

O=C(/C=C/c1ccc(S(=O)(=O)Nc2cc(F)cc(F)c2)cc1)NO ... 5.2 nM
O=C(NO)c1cn(C2CCN(C(=O)Cc3ccc4ccccc4c3)CC2)nn1 ... 1000 nM
O=C(CCCCCC(=O)N(Cc1ccc(Br)s1)c1ccc(OCCN2CCOCC2)cc1)NO ... 1.14 nM

We now examine a further compound.
Exercise: Any idea what IC50 was measured for N#Cc1cccc(-c2cn(CCCCCCn3cccc(/C=C/C(=O)NO)c3=O)nn2)c1 ?
Solution: 35 nM

Origin of values: ChEMBL document CHEMBL5230103
